measurement-notes: inhibitors of TNFa-induced NFkB p65 translocation, primary screen, imaging, HUVEC, MLSMR starter and 10KST1 sets (AID 438);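 further: compound added about 3h40 before a 20 min TNFalpha stimulation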
measurement-parameters: HUVEC TNFa-induced p65 nuclear translocation; measured here: nuclei count (cytotoxicity indicator), at 2.08 µM
Below is a list of entries, each paired with its recorded cell count value.
experimental-readout: cell count

molecule | experimental-readout | assay-result
COc1ccc2[nH]c(=O)c(CN(C(=O)c3ccncc3)C(C)C)cc2c1 | cell count | 438
COc1ccc(C2C3=C(CCCC3=O)Nc3nc(SCc4ccccc4)nn32)cc1OC (stereo not given) | cell count | 665
CCCSc1nc(N2CCOCC2)c2c(c1C#N)CCCC2 | cell count | 569
O=C(c1ccc(-n2cnnn2)cc1)N1CCOCC1 | cell count | 670
COc1ccc2c(c1OC)C(=O)N1c3ccccc3C(=O)N(c3ccccc3F)C21 (stereo not given) | cell count | 708
O=C(CC(c1ccc(F)cc1)c1ccco1)N1CCCC1 (stereo not given) | cell count | 494
Cc1c(Cl)cccc1N1C(=O)C2ON(c3ccccc3)C(c3cccnc3)C2C1=O (stereo not given) | cell count | 542
CCCCN(C)CCCNC(=O)CC1Oc2ccccc2NC1=O (stereo not given) | cell count | 585
COc1ccc(S(=O)(=O)N2CCCC2C(=O)Nc2ccc(C)cc2)cc1 (stereo not given) | cell count | 469
O=C1CC(c2ccccc2)n2nc(N3C(=O)c4ccccc4C3=O)nc2N1 (stereo not given) | cell count | 397
CN(CCOC(=O)c1ccc2c(c1)OCCO2)Cc1ccccc1 | cell count | 661
O=C(c1ccc2c(c1)[nH]c(=S)n1c3ccccc3nc21)N1CCN(c2ncccn2)CC1 | cell count | 515
COc1ccc(C2CC(c3ccc(C)cc3)Nc3nc(N)nn32)cc1 (stereo not given) | cell count | 390
CCOc1ccccc1NC(=O)CCSc1nc2n[nH]c(C)c2c(=N)n1-c1ccccc1Cl | cell count | 621
COc1cc(C(=O)Nc2ccc(O)cc2C(=O)O)ccc1OC(C)=O | cell count | 645
CCC(C)NC(=O)C1(C)CCC(=O)N1CCc1ccc(OC)c(OC)c1 (stereo not given) | cell count | 447
O=c1cc(N2CCCCC2)nc2n1CCCS2 | cell count | 568
CCN(C(=O)c1cn(C)c(=O)c2cc(OC)c(OC)cc12)c1ccccc1C | cell count | 175
Nn1c(SCC(=O)NC2CCCCC2)nnc1C1CC1 | cell count | 433
CCN(CC)CCN1C(=O)C(=O)/C(=C(/O)c2c(C)[nH]c(C(=O)OC)c2C)C1c1ccc(OC)cc1 (stereo not given) | cell count | 733
CSc1nc2[nH]c3c(c2c2nnnn12)CCCC3 | cell count | 571
Brc1ccc(-c2cnnc(N3CCCC3)n2)cc1 | cell count | 399
Cc1cccn2c(=O)c(/C=C(\C#N)S(=O)(=O)c3ccccc3)c(N3CCN(C)CC3)nc12 | cell count | 468
CCn1c(SCC(=O)Nc2ccc3c(c2)OCO3)nnc1-c1ccccc1O | cell count | 468
Cc1ccc(OCC(O)CNS(=O)(=O)c2ccccc2C(=O)O)cc1 (stereo not given) | cell count | 625
OC1(c2cccc(C(F)(F)F)c2)CCN(c2ccc(-c3ccccc3)nn2)CC1 | cell count | 853
C=CCc1cccc(/C=N/n2cnnc2)c1O | cell count | 534
CCOc1ccccc1NC(=O)CN(C)S(=O)(=O)c1cccc2nsnc12 | cell count | 671
CCOC(=O)c1c(NC(=O)COC(=O)c2c(C)noc2C)sc2c1CCC2 | cell count | 231
CCCCN(CCCC)C(=O)CSc1nnc2n(C)c(=O)c3c4c(sc3n12)CCCC4 | cell count | 496
O=C(Cn1cnc2ccccc2c1=O)NCCC(=O)N1CCN(c2ccccc2)CC1 | cell count | 383
CC1Cc2nc(SCC(=O)Nc3nccs3)n(C)c(=O)c2S1 (stereo not given) | cell count | 584
O=C(Nn1c(C2CC2)nc2ccccc2c1=O)c1ccco1 | cell count | 579
CCN(CC)CCCN1C(=O)C(=O)/C(=C(/O)c2ccc3c(c2)CC(C)O3)C1c1ccncc1 (stereo not given) | cell count | 613
CCC(NC(=O)Nc1ncccc1C)(C(F)(F)F)C(F)(F)F | cell count | 612
CCc1cc(=O)oc2cc(OC(C)=O)cc(OC(C)=O)c12 | cell count | 602
COc1cc(NC(=O)c2cc(CC(C)C)on2)c(OC)cc1Cl | cell count | 558
CCC(=O)Nc1ccc2nc(SCC(=O)N3CCCC3)sc2c1 | cell count | 709
COc1cc(NC(=O)C2CCCN2S(=O)(=O)c2cccc3cccnc23)cc(OC)c1OC (stereo not given) | cell count | 667
CC(C)CSc1nc2ccccc2n1CC(N)=O | cell count | 314
O=C(CCNS(=O)(=O)c1cccc2nsnc12)NCc1cccs1 | cell count | 623
CC(C)(C)c1nnc(NC(=O)C2CCN(c3ncccn3)CC2)s1 | cell count | 547
Cc1nn(CC(O)Cn2c3c(c4ccccc42)CCN(C)C3=O)c(C)c1Br (stereo not given) | cell count | 363
CSc1nncc(=O)[nH]1 | cell count | 642
CCOC(=O)c1ccc(NC(=O)CSc2n[nH]c(-c3ccncc3)n2)cc1 | cell count | 590
